The following compounds are shown together with reported pIC50 values.
# experimental_system: AgrA (Staphylococcus aureus, UniProt P0A0I7)
# Construct: endogenous in cells; host or cells: S. aureus USA300 strain UAMS-1625 carrying a P3-lacZ reporter plasmid
# Sequence (P0A0I7 whole entry): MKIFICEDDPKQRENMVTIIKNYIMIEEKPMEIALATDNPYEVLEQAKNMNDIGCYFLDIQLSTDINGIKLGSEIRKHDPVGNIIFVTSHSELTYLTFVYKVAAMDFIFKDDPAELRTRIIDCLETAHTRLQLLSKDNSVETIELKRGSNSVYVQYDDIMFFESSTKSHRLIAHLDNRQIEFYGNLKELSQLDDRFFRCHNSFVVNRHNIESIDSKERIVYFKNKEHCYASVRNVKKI
# test_description: cell-based
# Set-up: species or system S. aureus
# condition_info: IC50 without HSA, LB medium, no human serum albumin, 18 hours incubation
pIC50: −log10 of the molar value.

compound: CSCCNC(=O)CN1CCN(c2ccc3c(=O)[nH]c4c(S(=O)(=O)c5ccc(C)cc5C)nnn4c3c2)CC1 [Compound 18]
experimental_system: AgrA (Staphylococcus aureus, UniProt P0A0I7)
pIC50: > 5.76

compound: Cc1ccc(S(=O)(=O)c2nnn3c2[nH]c(=O)c2ccc(N4CCN(CC(=O)NCCc5cccs5)CC4)cc23)c(C)c1 [Compound 116]
experimental_system: AgrA (Staphylococcus aureus, UniProt P0A0I7)
pIC50: > 5.78

compound: CCNC(=O)CN1CCN(c2ccc3c(=O)[nH]c4c(S(=O)(=O)c5ccc(C)cc5C)nnn4c3c2)CC1 [Compound 4]
experimental_system: AgrA (Staphylococcus aureus, UniProt P0A0I7)
pIC50: > 5.72

compound: Cc1ccc(S(=O)(=O)c2nnn3c2[nH]c(=O)c2ccc(N4CCN(CC(=O)NCCC(C)C)CC4)cc23)c(C)c1 [Compound 11]
experimental_system: AgrA (Staphylococcus aureus, UniProt P0A0I7)
pIC50: > 5.75

compound: Cc1ccc(S(=O)(=O)c2nnn3c2[nH]c(=O)c2ccc(N4CCN(CC(=O)NCC5CCCO5)CC4)cc23)c(C)c1 (stereo not shown) [Compound 96]
experimental_system: AgrA (Staphylococcus aureus, UniProt P0A0I7)
pIC50: > 5.76

compound: Cc1ccc(S(=O)(=O)c2nnn3c2[nH]c(=O)c2ccc(N4CCN(CC(=O)NCCC(C)(C)C)CC4)cc23)c(C)c1 [Compound 13]
experimental_system: AgrA (Staphylococcus aureus, UniProt P0A0I7)
pIC50: > 5.76

compound: Cc1ccc(S(=O)(=O)c2nnn3c2[nH]c(=O)c2ccc(N4CCN(CC(=O)NCc5cccc(O)c5)CC4)cc23)c(C)c1 [Compound 108]
experimental_system: AgrA (Staphylococcus aureus, UniProt P0A0I7)
pIC50: > 5.78

* * *

# experimental_system: AgrA (Staphylococcus aureus)
# Construct: endogenous in cells; host or cells: S. aureus USA300 strain UAMS-1625 carrying a P3-lacZ reporter plasmid
# test_description: cell-based
# Set-up: species or system S. aureus
# condition_info: IC50 without HSA, LB medium, no human serum albumin, 18 hours incubation

compound_structure_string: Cc1ccc(S(=O)(=O)c2nnn3c2[nH]c(=O)c2ccc(N4CCN(CC(=O)N5CCCN(CCO)CC5)CC4)cc23)c(C)c1
IC50: 1610 to 8030 nM

compound_structure_string: Cc1ccc(S(=O)(=O)c2nnn3c2[nH]c(=O)c2ccc(N4CCN(CC(=O)Nc5ccccc5)CC4)cc23)c(C)c1
IC50: < 1750 nM

compound_structure_string: Cc1ccc(S(=O)(=O)c2nnn3c2[nH]c(=O)c2ccc(N4CCN(CC(=O)N5CCNC(=O)C5)CC4)cc23)c(C)c1
IC50: 1730 to 8640 nM

* * *

# experimental_system: AgrA (Staphylococcus aureus, UniProt P0A0I7)
# Construct: endogenous in cells; host or cells: S. aureus USA300 strain UAMS-1625 carrying a P3-lacZ reporter plasmid
# test_description: cell-based
# Design: species or system S. aureus
# condition_info: IC50 in the presence of 40 mg/mL HSA, 40 mg/mL HSA; highest concentration tested 128 μg/mL
measurement_kind: IC50

compound: Cc1ccc(S(=O)(=O)c2nnn3c2[nH]c(=O)c2ccc(N4CCC4)cc23)c(C)c1 [Compound 45 of WO 2020/109350, reference compound]
measurement_kind: IC50
observed_value: > 313 µM
